biological target: Receptor tyrosine-protein kinase erbB-2 (Homo sapiens); experiment: Her2 expression decrease, cell viability multiplex – SKBR3 breast tumor cells, AlphaScreen, ATP viability, primary screen (AID 461); conditions: 18-24 h, at 10 µM, active compounds read low;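 note: lower value means less Her2 protein in the cells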
Exercise: state measured Her2 level for each of the molecules provided.
Number in %, nothing else.

Prompt: # get_value(readout='Her2 level', item= Cc1ccc(C(=O)CSc2n[nH]c(-c3ccco3)n2)cc1C )
Response: 104

Prompt: # get_value(readout='Her2 level', item= c1nc(NCC2(N3CCOCC3)CCCCC2)c2ccsc2n1 )
Response: 93

Prompt: # get_value(readout='Her2 level', item= CC1(C)CC(=O)c2cnc(NC(=O)CCc3ccccc3)nc2C1 )
Response: 82

Prompt: # get_value(readout='Her2 level', item= CCN1CCN(C(=O)c2cn(CC)c3ccc(S(=O)(=O)N(C)C)cc3c2=O)CC1 )
Response: 104

Prompt: # get_value(readout='Her2 level', item= CCOc1ccccc1N1Cc2cc(C)c(C)cc2C1 )
Response: 104

Prompt: # get_value(readout='Her2 level', item= CC(C)CNc1oc(-c2ccc(F)cc2)nc1C#N )
Response: 110

Prompt: # get_value(readout='Her2 level', item= CNC(=O)c1ccsc1NC(=O)CN1C(=O)CCC1=O )
Response: 94

Prompt: # get_value(readout='Her2 level', item= COc1cccc(C(=O)OCn2nnc3ccccc3c2=O)c1OC )
Response: 102

Prompt: # get_value(readout='Her2 level', item= Cn1c(=O)cc(NCCc2ccccc2)[nH]c1=O )
Response: 93.5

Prompt: # get_value(readout='Her2 level', item= CN1CCC(NC(=O)c2cccs2)CC1 )
Response: 90

====

Exercise: state measured inhibition for each of the compounds provided.
test: growth suppression of yeast trafficking mutant, preliminary HTS, modulators of trafficking downstream of Golgi apparatus project, 1536-format plate, OD 615 nm (AID 637); conditions: yeast transport mutant growth, absorbance 615 nm, 18 h; active compounds read high
Number in %, nothing else.

Prompt: # get_value(readout='inhibition', item= CCC(C)NC(=O)c1cn(CC)c2ccc(S(=O)(=O)N(C)C)cc2c1=O (stereo not drawn) )
Response: -2.33

Prompt: # get_value(readout='inhibition', item= CC1Cc2ccccc2N1C(=O)C12CCC(C)(C(=O)C1)C2(C)C (stereo not drawn) )
Response: -4.84

Prompt: # get_value(readout='inhibition', item= CCc1ccc(C(=O)NC2CCCCC2)s1 )
Response: 0.81

====

experiment: S. cerevisiae growth inhibition in permissive medium (OD615), pilot counter-assay for S. cerevisiae lifespan shortening project, permissive growth control (AID 705); details: OD615, 24 h, at 10 µM, active compounds read high
Exercise: state measured growth inhibition for each of the compounds provided.
Number in %, nothing else.

Prompt: # get_value(readout='growth inhibition', item= Cc1nc2ccc(S(=O)(=O)NC(C(=O)N3CCn4c3nc3ccccc34)C(C)C)cc2s1 (stereo not given) )
Response: 0.9

Prompt: # get_value(readout='growth inhibition', item= COc1cc(C2c3c(oc4ccccc4c3=O)C(=O)N2c2ccc(C)cn2)ccc1O (stereo not given) )
Response: -6.67

Prompt: # get_value(readout='growth inhibition', item= COc1ccc(N(CC(=O)N2CCc3ccccc3C2)S(=O)(=O)c2c(C)[nH]c(=O)[nH]c2=O)cc1 )
Response: -5.04

Prompt: # get_value(readout='growth inhibition', item= CNC(=O)CN(c1ccc(C(C)C)cc1)S(C)(=O)=O )
Response: -10.4

Prompt: # get_value(readout='growth inhibition', item= O=C(NCCN1CCCC1)c1ccc(CS(=O)(=O)c2c(Cl)cccc2Cl)o1 )
Response: -6.75

Prompt: # get_value(readout='growth inhibition', item= CCN=C(Nc1ccc2c(c1)OCO2)SC1CC(=O)N(c2ccccc2F)C1=O (stereo not given) )
Response: -4.17

Prompt: # get_value(readout='growth inhibition', item= COc1ccc2oc(C(=O)CCC(=O)O)c(N)c2c1 )
Response: -12.2

Prompt: # get_value(readout='growth inhibition', item= Cc1noc(C)c1S(=O)(=O)N(CC(=O)N1CCCC1)c1ccc(C(C)C)cc1 )
Response: -1.45

Prompt: # get_value(readout='growth inhibition', item= O=C(NCCN1CCOCC1)c1ccc2c(c1)N(Cc1ccccc1F)C(=O)CS2 )
Response: 7.73

Prompt: # get_value(readout='growth inhibition', item= Cc1nc2ccc(Br)cn2c1NC(C)(C)C )
Response: -13.4

Prompt: # get_value(readout='growth inhibition', item= COc1cccc(-c2nnc(NC(C)=O)o2)c1 )
Response: -0.545

Prompt: # get_value(readout='growth inhibition', item= CCOC(=O)C1CCCN(C(=O)c2ccc(CNc3c(N4CCC(C)CC4)c(=O)c3=O)cc2)C1 (stereo not given) )
Response: -16.1

Prompt: # get_value(readout='growth inhibition', item= O=C(O)c1ccc(Cl)c2c1C1C=CCC1C(c1ccccn1)N2 (stereo not given) )
Response: -7.86

Prompt: # get_value(readout='growth inhibition', item= CC(=O)Nc1cccc(NC(=O)c2ccco2)c1 )
Response: -5.76

Prompt: # get_value(readout='growth inhibition', item= N#Cc1nc(COc2ccccc2Cl)oc1N1CCCCCC1 )
Response: 7.94

Prompt: # get_value(readout='growth inhibition', item= O=C(NCCc1cccc(Cl)c1)c1cccnc1 )
Response: -1.24

Prompt: # get_value(readout='growth inhibition', item= Cc1ccccc1-n1c(Cn2c(=O)sc3ccccc32)nnc1SC(C)C )
Response: 5.19

Prompt: # get_value(readout='growth inhibition', item= Cc1cc(NC(=O)CS(=O)(=O)c2cn(Cc3ccccc3Cl)c3ccccc23)no1 )
Response: -4.35

Prompt: # get_value(readout='growth inhibition', item= COc1ccccc1OCCNC(=O)c1cccs1 )
Response: -6.5

Prompt: # get_value(readout='growth inhibition', item= C/C=C/COC(=O)c1[nH]c2c(c1C)C(=O)CC(c1ccc(N(C)C)cc1)C2 (stereo not given) )
Response: -10.2

Prompt: # get_value(readout='growth inhibition', item= CCOC(=O)N1CCN(C(=O)COc2ccc(Br)cc2)CC1 )
Response: -16.4

Prompt: # get_value(readout='growth inhibition', item= O=C(NCCc1ccccc1)C1CCN(C(=O)c2sccc2-n2cccc2)CC1 )
Response: -0.295

Prompt: # get_value(readout='growth inhibition', item= Cc1occc1C(=O)N1CCN(Cc2ccccc2)CC1 )
Response: -0.31

Prompt: # get_value(readout='growth inhibition', item= Cc1c(NC(=O)c2ccc(CN3CCc4ccccc4C3)cc2)c(=O)n(-c2ccccc2)n1C )
Response: -4.14

Prompt: # get_value(readout='growth inhibition', item= COc1cc(C2NC(=O)NC(C)=C2C(=O)OCC2CCCO2)ccc1O (stereo not given) )
Response: -7.94

Prompt: # get_value(readout='growth inhibition', item= Cn1nnc2cc(C(=O)N3CCCCCC3)ccc21 )
Response: -10.5

Prompt: # get_value(readout='growth inhibition', item= CC1CCN(c2oc(-c3ccccc3F)nc2C#N)CC1 )
Response: -14.9

Prompt: # get_value(readout='growth inhibition', item= COc1ccc(C(c2sc3nc(C)nn3c2O)N2CCCCC2)cc1 (stereo not given) )
Response: -3.33

Prompt: # get_value(readout='growth inhibition', item= C=CCSc1nc(N)c2c(C)c(C)sc2n1 )
Response: -10.6

Prompt: # get_value(readout='growth inhibition', item= CCOc1ccc(N(CC(=O)OC)S(=O)(=O)c2ccc(OC)c(OC)c2)cc1 )
Response: -11.6

====

assay: doxorubicin toxicity protection in MRP-1 cells – H69AR cells, CellTiter-Glo, duplicate, MRP-1 activator project, pilot screen (AID 807); conditions: H69AR viability with doxorubicin, CellTiter-Glo luminescence; at 10 µM; active compounds read high;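 note: compound pretreatment 18-22 h then 72 h combined with doxorubicin; 0% = doxorubicin alone and 100% = vehicle without doxorubicin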
quantity measured: viability increase (%)
Number in %, nothing else.

Prompt: # get_value(readout='viability increase', item= O=C(Nc1cccc2ccccc12)c1ccc(Br)o1 )
Response: -1.67

Prompt: # get_value(readout='viability increase', item= COC(=O)NCC(c1cccnc1)N1CCOCC1 (configuration not stated) )
Response: 0.99

Prompt: # get_value(readout='viability increase', item= COC(=O)Cn1c(CN2CCOCC2)nc2c1c(=O)n(C)c(=O)n2C )
Response: -0.73

Prompt: # get_value(readout='viability increase', item= Cc1c(C(=O)OC2CCCC2)[nH]c2c1C(=O)CC(c1ccco1)C2 (configuration not stated) )
Response: -5.41

Prompt: # get_value(readout='viability increase', item= COc1c(S(=O)(=O)n2nc(C)cc2C)ccc(Cl)c1Cl )
Response: 1.75

Prompt: # get_value(readout='viability increase', item= Fc1cccc(Nc2ncnc3c2cnn3-c2ccccc2)c1 )
Response: -5.13

Prompt: # get_value(readout='viability increase', item= CN(C1CCCCC1)S(=O)(=O)c1ccc(S(=O)(=O)N2CCN(CCC#N)CC2)cc1 )
Response: -1.47
